Each entry below carries its recorded growth.
Tested on: HCT-116 colon
Assay: NCI-60 one-dose screen, 48 h (100 = growth as untreated, 0 = no growth, -100 = all killed)
Conditions: 10 µM unless noted
The panel holds about 83,000 compounds, 20% with a hit somewhere; the sample as a whole holds those more often. Calls of active or inactive are those of the source. How the source made its calls: active means growth percent below 10; inactive means the rest.

COMPOUND: CCCCCc1ccc(S(=O)(=O)N(C(C)=O)c2cccc(-c3csc(N(CCN4CCN(C)CC4)C(C)=O)n3)c2)cc1
TARGET SYSTEM: HCT-116 colon
growth: -66.2% (active)
//
COMPOUND: CC1(C)CC[C@]2(C(=O)N3CCCNCC3)CC[C@]3(C)C(=CC[C@@H]4[C@@]5(C)CCC(=O)C(C)(C)[C@@H]5CC[C@]43C)[C@H]2C1
TARGET SYSTEM: HCT-116 colon
growth: 103% (inactive)
//
COMPOUND: O=C1c2cc(Br)ccc2-n2c1nc1cc(Br)ccc1c2=O
TARGET SYSTEM: HCT-116 colon
growth: 81.8% (inactive)
//
COMPOUND: CN(C)c1ccc(/C=N/Nc2nc(N/N=C/c3ccc(N(C)C)cc3)nc(N3CCOCC3)n2)cc1
TARGET SYSTEM: HCT-116 colon
growth: 35.7% (inactive)
//
COMPOUND: Cc1cnc2nc(NN)[nH]n12
TARGET SYSTEM: HCT-116 colon
growth: 98.9% (inactive)
//
COMPOUND: O=C(Nc1cccc(-c2nc(-c3ccc(NC(=O)c4cccnc4)cc3Cl)no2)c1)Nc1ccc(NC(=O)C2CC2)c(C(F)(F)F)c1
TARGET SYSTEM: HCT-116 colon
growth: -52.8% (active)
//
COMPOUND: COc1cc2c3c(n(CCCNC4CCCCC4)c(=O)c2cc1OC)-c1cc2c(cc1C3=O)OCO2
TARGET SYSTEM: HCT-116 colon
growth: -72.3% (active)
//
COMPOUND: CCOc1ccc2nc(NC(=O)Nc3ccccc3C)sc2c1
TARGET SYSTEM: HCT-116 colon
growth: 39.8% (inactive)
//
COMPOUND: Cn1nc(Nc2ccccc2)c(C(=O)NN)c1N
TARGET SYSTEM: HCT-116 colon
growth: 113% (inactive)
//
COMPOUND: COc1ccc(-c2cc(-c3ccc(Cl)cc3)nc3nc(N)nn23)cc1
TARGET SYSTEM: HCT-116 colon
growth: 98.8% (inactive)
//
COMPOUND: O=C(COc1cccc2cccnc12)Nc1ccc(C(=O)/C=C/c2ccc(Cl)cc2)cc1
TARGET SYSTEM: HCT-116 colon
growth: 5.25% (active)
//
COMPOUND: CCOC(=O)c1c(NCC(=O)Nc2ccc(Br)cc2)sc2c1CCCC2
TARGET SYSTEM: HCT-116 colon
growth: 7.99% (active)
//
COMPOUND: CCOC(=O)c1c(Nc2ccccc2)nn2c(-c3ccc(Br)cc3)ccnc12
TARGET SYSTEM: HCT-116 colon
growth: 42.5% (inactive)
//
COMPOUND: CN1CCN(c2ccc3c(c2)nc(NNC(=O)c2ccncn2)c2cccn23)CC1
TARGET SYSTEM: HCT-116 colon
growth: 23.6% (inactive)
//
COMPOUND: O=C(c1ccc(O)cc1)[C@@H]1[C@@H]2CCCN2[C@@]2(C(=O)N(C(=O)c3ccc(F)cc3)c3ccccc32)[C@H]1c1ccc(F)cc1
TARGET SYSTEM: HCT-116 colon
growth: 91.4% (inactive)
//
COMPOUND: O=C(/C=C1\C=CN(CCCCO)c2ccccc21)n1ccc2ccccc21
TARGET SYSTEM: HCT-116 colon
growth: 108% (inactive)
//
COMPOUND: CNC(=O)c1cc(Oc2ccc3nc(NC(=O)c4ccc(CN5CCCN(C)CC5)c(C(F)(F)F)c4)sc3c2)ccn1
TARGET SYSTEM: HCT-116 colon
growth: 5.99% (active)
//
COMPOUND: C=C(C)[C@@H]1CC[C@]2(COS(C)(=O)=O)CC[C@]3(C)[C@H](CC[C@@H]4[C@@]5(C)CCCNC(C)(C)[C@@H]5CC[C@]43C)[C@@H]12
TARGET SYSTEM: HCT-116 colon
growth: 15.6% (inactive)
//
COMPOUND: O=C1/C(=C/c2ccc([N+](=O)[O-])cc2)SC(=Nc2ccccc2)N1Nc1ccccc1
TARGET SYSTEM: HCT-116 colon
growth: 26.9% (inactive)
//
COMPOUND: COc1ccc(-c2cc(-c3cccc4ccccc34)n3c(n2)nc2ccccc23)cc1
TARGET SYSTEM: HCT-116 colon
growth: 37.9% (inactive)
//
COMPOUND: CS(=O)c1nccc(-c2c(-c3ccc(F)c(OCc4ccccc4)c3)nc3sccn23)n1 (configuration not stated)
TARGET SYSTEM: HCT-116 colon
growth: 63.6% (inactive)
//
COMPOUND: O=C1[C@H]2Cc3c([nH]c4ccccc34)[C@@H](c3c(Cl)cccc3Cl)N2C(=O)CN1C1CCN(Cc2ccccc2)CC1
TARGET SYSTEM: HCT-116 colon
growth: -1.46% (active)
//
COMPOUND: CCC(C)[C@H]1OC(=O)[C@H](C(C)C)N(C)C(=O)[C@@H](C(C)C)OC(=O)[C@H](C(C)C)N(C)C(=O)[C@@H](C(C)CC)OC(=O)[C@H](C(C)C)N(C)C1=O (some centres not stated)
TARGET SYSTEM: HCT-116 colon
growth: 8.58% (active)
//
COMPOUND: O=C1c2c(c3c4cc(O)ccc4oc3c3[nH]c4ccccc4c23)C(=O)N1O
TARGET SYSTEM: HCT-116 colon
growth: -45.8% (active)
//
COMPOUND: C#C[C@]1(O)CC[C@H]2[C@@H]3CC=C4c5sc(-c6ccc(OC)cc6)nc5CC[C@]4(C)[C@H]3CC[C@@]21C
TARGET SYSTEM: HCT-116 colon
growth: 59.9% (inactive)
//
COMPOUND: Fc1ccc(-c2cc3nc(C(Cl)Cl)nc(-c4cccs4)n3n2)cc1
TARGET SYSTEM: HCT-116 colon
growth: -2.24% (active)
//
COMPOUND: Cc1csc(Nc2cccc(Nc3nc(C)cs3)c2)n1
TARGET SYSTEM: HCT-116 colon
growth: 56.5% (inactive)
//
COMPOUND: CC(C)(C)OC(=O)N1CCN(S(=O)(=O)/N=C2\NC(=O)NC2=C(Cl)Cl)CC1
TARGET SYSTEM: HCT-116 colon
growth: 98% (inactive)
//
COMPOUND: C#C[C@]1(O)CC[C@H]2[C@@H]3CC=C4c5sc(-c6ccccn6)nc5CC[C@]4(C)[C@H]3CC[C@@]21C
TARGET SYSTEM: HCT-116 colon
growth: 62% (inactive)
//
COMPOUND: CCOC(=O)c1c(Nc2ccccc2)nn2c(-c3ccc(OC)c(OC)c3)ccnc12
TARGET SYSTEM: HCT-116 colon
growth: 42.7% (inactive)
//
COMPOUND: CC(C)Sc1nc(NC2CC2)c(C#N)c(-c2ccccc2)n1
TARGET SYSTEM: HCT-116 colon
growth: 53.2% (inactive)
//
COMPOUND: CSc1nccc(-c2c(-c3ccc(F)c(OCc4ccc(F)cc4)c3)nc3sccn23)n1
TARGET SYSTEM: HCT-116 colon
growth: 51.3% (inactive)
//
COMPOUND: CCOC(=O)/C(F)=C/C1CC1CCc1cccc(C(F)(F)F)c1 (configuration not stated)
TARGET SYSTEM: HCT-116 colon
growth: 110% (inactive)
//
COMPOUND: Oc1ccc(CSc2nnc(-c3cnccn3)n2-c2ccccc2)c2cccnc12
TARGET SYSTEM: HCT-116 colon
growth: 19.3% (inactive)
//
COMPOUND: CCOC(=O)CC(=O)CSC1=NC2C(NN1)N(C)C(=O)N2C (configuration not stated)
TARGET SYSTEM: HCT-116 colon
growth: 9.01% (active)
//
COMPOUND: C#CCOc1ccc(C(Nc2ccc(Cl)cc2)c2nnnn2C2CCCCC2)cc1 (configuration not stated)
TARGET SYSTEM: HCT-116 colon
growth: 61.4% (inactive)
//
COMPOUND: O=C(CCCCCCN1CC(=O)N2[C@@H](c3cccc(Cl)c3)c3[nH]c4ccccc4c3C[C@H]2C1=O)NO
TARGET SYSTEM: HCT-116 colon
growth: 14.8% (inactive)
